# Assayed target: human integrin αvβ3 (Homo sapiens, UniProt P05106+P06756)
# Sequence (P06756 31-992 limits assumed): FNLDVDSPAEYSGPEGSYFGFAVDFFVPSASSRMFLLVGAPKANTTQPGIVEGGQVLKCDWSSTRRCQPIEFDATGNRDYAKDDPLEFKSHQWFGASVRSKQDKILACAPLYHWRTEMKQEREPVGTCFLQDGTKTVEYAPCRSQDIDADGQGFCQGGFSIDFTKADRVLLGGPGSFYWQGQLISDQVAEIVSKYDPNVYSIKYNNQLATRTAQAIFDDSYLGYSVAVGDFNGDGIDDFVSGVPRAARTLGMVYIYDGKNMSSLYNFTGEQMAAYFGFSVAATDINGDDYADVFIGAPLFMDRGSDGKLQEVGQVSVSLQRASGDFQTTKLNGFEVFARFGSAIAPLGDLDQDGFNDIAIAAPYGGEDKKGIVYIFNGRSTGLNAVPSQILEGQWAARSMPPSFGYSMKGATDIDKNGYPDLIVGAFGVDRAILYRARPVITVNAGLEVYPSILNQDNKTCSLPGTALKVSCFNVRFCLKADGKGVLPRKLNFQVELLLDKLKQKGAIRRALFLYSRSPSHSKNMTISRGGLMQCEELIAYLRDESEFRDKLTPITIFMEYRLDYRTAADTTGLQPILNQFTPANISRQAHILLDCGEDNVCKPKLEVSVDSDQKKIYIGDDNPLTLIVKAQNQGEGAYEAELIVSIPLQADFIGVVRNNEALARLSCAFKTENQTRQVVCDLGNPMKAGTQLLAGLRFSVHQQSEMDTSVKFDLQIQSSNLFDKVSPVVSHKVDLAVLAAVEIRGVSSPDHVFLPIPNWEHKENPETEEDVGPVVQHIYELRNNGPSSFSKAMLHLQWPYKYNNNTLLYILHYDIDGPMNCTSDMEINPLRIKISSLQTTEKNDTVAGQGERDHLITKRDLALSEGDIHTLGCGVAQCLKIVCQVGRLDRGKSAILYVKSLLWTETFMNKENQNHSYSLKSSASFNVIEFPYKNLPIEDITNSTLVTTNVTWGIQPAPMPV
# Sequence (P05106 27-718 limits assumed): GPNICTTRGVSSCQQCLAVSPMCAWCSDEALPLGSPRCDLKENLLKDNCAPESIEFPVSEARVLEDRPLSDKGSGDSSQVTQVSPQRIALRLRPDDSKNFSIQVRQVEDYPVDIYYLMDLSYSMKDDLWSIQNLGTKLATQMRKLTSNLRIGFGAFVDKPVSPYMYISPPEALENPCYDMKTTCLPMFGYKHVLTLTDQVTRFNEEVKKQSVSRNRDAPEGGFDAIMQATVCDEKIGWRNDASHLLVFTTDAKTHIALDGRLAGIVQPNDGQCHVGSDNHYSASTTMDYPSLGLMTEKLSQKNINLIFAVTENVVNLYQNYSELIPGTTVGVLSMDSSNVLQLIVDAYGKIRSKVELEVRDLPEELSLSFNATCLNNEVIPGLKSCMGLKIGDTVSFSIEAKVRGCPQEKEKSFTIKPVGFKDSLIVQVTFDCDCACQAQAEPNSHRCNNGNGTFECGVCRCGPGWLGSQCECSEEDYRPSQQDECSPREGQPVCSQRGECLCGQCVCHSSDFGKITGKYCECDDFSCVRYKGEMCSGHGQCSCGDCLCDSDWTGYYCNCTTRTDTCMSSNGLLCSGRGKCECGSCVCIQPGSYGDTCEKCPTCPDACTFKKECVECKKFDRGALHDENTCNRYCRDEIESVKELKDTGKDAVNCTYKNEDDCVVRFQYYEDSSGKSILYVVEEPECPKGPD
# Measurement protocol: Integrin ligand-binding assay, αvβ3 (vitronectin ligand)
Observable: IC50 (nM)
Please respond with the number in nM and leave the unit unwritten.

Notebook entry, human integrin αvβ3 (Homo sapiens, UniProt P05106+P06756) assay: IC50 of CC(C)(C)c1cc(Br)cc([C@H](CC(=O)O)NC(=O)CNC(=O)c2cc(O)cc(NC3=NCC(O)CN3)c2)c1 (some centres unmarked) [CWHM-12, reference compound] = ?
0.7

====

# Assayed target: αvβ6-induced TGF-β activation (Homo sapiens, UniProt P06756+P18564)
# Sequence (P06756 31-1048): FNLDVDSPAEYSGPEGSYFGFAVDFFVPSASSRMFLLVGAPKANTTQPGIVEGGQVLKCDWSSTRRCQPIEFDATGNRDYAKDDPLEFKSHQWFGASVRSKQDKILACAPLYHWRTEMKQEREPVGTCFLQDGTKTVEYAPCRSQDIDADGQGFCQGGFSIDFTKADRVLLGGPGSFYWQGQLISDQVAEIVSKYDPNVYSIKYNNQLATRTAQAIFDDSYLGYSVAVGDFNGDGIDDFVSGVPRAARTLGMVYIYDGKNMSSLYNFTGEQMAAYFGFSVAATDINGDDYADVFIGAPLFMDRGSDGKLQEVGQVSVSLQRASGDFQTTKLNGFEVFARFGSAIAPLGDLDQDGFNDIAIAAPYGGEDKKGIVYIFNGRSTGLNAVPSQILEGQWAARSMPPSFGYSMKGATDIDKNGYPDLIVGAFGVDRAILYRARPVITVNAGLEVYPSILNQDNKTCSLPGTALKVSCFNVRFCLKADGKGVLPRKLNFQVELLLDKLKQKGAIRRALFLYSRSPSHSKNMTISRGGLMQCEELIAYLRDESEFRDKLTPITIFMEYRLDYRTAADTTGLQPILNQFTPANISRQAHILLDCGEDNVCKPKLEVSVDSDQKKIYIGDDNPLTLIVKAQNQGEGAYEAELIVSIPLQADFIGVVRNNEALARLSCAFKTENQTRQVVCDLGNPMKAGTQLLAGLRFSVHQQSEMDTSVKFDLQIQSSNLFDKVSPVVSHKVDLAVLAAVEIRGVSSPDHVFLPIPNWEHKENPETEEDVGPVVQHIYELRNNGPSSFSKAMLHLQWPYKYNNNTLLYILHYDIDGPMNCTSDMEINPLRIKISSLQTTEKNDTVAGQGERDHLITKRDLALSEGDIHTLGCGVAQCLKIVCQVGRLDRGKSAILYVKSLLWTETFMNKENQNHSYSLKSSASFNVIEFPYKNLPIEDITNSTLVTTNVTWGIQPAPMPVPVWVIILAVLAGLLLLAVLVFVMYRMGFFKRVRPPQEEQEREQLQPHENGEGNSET
# Sequence (P18564 22-788): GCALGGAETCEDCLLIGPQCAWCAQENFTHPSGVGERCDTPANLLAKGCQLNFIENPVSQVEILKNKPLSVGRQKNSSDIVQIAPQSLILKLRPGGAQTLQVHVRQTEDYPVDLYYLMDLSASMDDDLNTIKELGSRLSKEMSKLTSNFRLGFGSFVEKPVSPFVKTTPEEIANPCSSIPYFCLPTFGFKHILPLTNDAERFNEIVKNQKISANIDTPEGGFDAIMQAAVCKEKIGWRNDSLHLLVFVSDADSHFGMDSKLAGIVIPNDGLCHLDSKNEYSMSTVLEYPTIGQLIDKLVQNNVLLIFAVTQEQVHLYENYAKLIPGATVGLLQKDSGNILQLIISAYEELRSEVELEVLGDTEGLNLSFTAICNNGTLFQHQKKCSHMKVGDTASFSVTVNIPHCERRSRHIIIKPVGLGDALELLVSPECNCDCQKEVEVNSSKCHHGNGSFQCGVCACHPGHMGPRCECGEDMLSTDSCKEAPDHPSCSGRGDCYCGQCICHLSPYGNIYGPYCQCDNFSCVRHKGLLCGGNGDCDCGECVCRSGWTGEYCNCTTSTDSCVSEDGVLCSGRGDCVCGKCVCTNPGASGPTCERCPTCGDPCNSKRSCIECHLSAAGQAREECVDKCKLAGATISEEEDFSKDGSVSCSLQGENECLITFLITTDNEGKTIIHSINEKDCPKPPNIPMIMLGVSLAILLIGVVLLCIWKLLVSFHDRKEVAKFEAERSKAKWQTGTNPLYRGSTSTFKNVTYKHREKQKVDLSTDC
# Measurement protocol: TGF-β co-culture assay, SW-β6 cells with MLEC luciferase reporter cells
# Measurement context: integrin αvβ6
We begin with a simple list: items and their reported pIC50.
To interpret pIC50, take it as minus log10 of a concentration measured in moles per litre.

Field request: pIC50 | item: CC(C)(C)c1cc(Br)cc([C@H](CC(=O)O)NC(=O)CNC(=O)c2cc(O)cc(NC3=NCC(O)CN3)c2)c1 (some centres unmarked) [CWHM-12, reference compound]
6.50

Moving on to the next compound.
Fill in: pIC50 of "COCCN(CCCCc1ccc2c(n1)NCCC2)CC[C@H](Nc1ncnc2ccccc12)C(=O)O" is ___
7.53
